The values you see were collected from paper PMC5641481.

# target or system: FAAH (Homo sapiens, UniProt O00519)
# Sequence (O00519 whole entry): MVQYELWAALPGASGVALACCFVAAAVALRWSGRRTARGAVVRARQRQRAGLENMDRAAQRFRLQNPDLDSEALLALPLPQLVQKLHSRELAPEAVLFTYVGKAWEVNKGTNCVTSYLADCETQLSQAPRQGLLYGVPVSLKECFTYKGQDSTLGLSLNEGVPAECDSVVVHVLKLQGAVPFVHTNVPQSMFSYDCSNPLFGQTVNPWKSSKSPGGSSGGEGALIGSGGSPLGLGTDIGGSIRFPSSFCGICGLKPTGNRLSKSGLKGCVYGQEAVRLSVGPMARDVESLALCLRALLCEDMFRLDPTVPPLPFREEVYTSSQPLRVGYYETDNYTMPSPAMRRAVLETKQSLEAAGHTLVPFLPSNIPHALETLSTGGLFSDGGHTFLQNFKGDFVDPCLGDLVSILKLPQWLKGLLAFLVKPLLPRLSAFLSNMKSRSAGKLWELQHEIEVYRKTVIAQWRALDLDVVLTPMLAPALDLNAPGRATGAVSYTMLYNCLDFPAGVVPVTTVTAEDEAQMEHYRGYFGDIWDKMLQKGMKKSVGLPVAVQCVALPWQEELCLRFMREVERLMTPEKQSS
# method notes: anandamide substrate hydrolysis assay, intact transfected HEK293T cells
# Format: cell-based
# condition set: human FAAH in transfected HEK293T cells, in situ

- compound: "CN(C(=O)n1cnc(-c2ccc[n+]([O-])c2)c1)C1CCCCC1 [BIA 10-2474]"
  target or system: "FAAH (Homo sapiens, UniProt O00519)"
  IC50: "50 to 70 nM"

----------
pIC50 for assorted compounds
# target or system: UniProt:O00519
# method notes: competitive gel-based ABPP, intact HEK293T cells
# Type: cell-based
# condition set: in situ (4 h)
pIC50: −log10 of the molar value.

- chemical structure: "CN(C(=O)n1cnc(-c2ccc[n+]([O-])c2)c1)C1CCCCC1"
  pIC50: 7.31
- chemical structure: "O=C(Nc1cccnn1)N1CCC(=Cc2cccc(Oc3ccc(C(F)(F)F)cn3)c2)CC1"
  pIC50: 7.96
- chemical structure: "CN(C(=O)n1cnc(-c2cccnc2)c1)C1CCCCC1"
  pIC50: 7.31

----------
IC50 overview
# target or system: ABHD6 (Homo sapiens, UniProt Q9BV23)
# Sequence (Q9BV23 whole entry): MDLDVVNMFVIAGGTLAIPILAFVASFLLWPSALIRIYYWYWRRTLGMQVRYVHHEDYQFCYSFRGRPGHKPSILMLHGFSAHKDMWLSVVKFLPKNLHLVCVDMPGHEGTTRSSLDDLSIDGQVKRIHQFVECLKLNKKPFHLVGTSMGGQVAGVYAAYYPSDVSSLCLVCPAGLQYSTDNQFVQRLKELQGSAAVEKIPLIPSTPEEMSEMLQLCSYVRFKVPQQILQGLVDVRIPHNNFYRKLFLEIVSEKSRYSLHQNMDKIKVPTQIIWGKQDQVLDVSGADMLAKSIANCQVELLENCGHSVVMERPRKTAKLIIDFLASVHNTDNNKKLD
# method notes: competitive gel-based ABPP, intact HEK293T cells
# condition set: ABHD6, in situ (4 h)

- compound: "CN(C(=O)n1cnc(-c2ccc[n+]([O-])c2)c1)C1CCCCC1 [BIA 10-2474]"
  unit annotation: "nM"
  modifier sign: "="
  IC50: 81
- compound: "CN(C(=O)n1cnc(-c2cccnc2)c1)C1CCCCC1 [BIA 10-2639]"
  unit annotation: "nM"
  modifier sign: "="
  IC50: 79
- compound: "O=C(Nc1cccnn1)N1CCC(=Cc2cccc(Oc3ccc(C(F)(F)F)cn3)c2)CC1 [PF04457845]"
  unit annotation: "nM"
  modifier sign: ">"
  IC50: 10000

----------
IC50 tested on PNPLA6 (Homo sapiens, UniProt Q8IY17): recorded values
Sequence (Q8IY17 whole entry): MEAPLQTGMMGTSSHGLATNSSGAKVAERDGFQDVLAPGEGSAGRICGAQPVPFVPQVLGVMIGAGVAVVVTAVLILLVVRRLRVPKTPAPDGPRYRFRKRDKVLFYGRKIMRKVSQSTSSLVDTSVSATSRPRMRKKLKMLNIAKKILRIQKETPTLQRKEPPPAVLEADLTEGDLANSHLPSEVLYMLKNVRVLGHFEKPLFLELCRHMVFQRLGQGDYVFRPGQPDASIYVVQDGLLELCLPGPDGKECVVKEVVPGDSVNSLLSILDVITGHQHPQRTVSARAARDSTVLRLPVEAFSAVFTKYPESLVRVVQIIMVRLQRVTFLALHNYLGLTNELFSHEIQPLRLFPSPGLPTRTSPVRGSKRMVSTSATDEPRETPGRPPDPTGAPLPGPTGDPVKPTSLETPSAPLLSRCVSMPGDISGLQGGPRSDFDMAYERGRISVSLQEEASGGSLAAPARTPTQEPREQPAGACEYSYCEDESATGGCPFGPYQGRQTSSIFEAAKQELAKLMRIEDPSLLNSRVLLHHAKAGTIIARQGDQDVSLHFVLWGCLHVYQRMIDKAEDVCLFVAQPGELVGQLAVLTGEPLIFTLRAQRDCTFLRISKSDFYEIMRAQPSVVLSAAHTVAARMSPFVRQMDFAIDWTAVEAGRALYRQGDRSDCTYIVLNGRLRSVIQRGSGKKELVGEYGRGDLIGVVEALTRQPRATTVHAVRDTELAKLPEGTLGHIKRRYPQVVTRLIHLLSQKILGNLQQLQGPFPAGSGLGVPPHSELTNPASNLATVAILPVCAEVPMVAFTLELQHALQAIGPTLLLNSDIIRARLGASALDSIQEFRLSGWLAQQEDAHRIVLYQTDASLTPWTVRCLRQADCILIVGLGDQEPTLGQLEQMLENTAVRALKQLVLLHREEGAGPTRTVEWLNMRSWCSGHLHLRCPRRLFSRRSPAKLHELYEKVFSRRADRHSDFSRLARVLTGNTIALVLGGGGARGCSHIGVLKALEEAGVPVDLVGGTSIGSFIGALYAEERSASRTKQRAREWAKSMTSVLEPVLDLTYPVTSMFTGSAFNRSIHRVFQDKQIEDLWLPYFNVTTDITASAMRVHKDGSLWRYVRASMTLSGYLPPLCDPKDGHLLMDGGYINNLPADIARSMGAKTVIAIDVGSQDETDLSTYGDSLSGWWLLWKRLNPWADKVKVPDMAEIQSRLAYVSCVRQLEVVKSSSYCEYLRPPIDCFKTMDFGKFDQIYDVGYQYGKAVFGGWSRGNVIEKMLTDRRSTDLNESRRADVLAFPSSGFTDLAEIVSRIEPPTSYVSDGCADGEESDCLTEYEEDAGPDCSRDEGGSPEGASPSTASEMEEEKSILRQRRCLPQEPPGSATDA

- chemical structure: "CN(C(=O)n1cnc(-c2ccc[n+]([O-])c2)c1)C1CCCCC1"
  modifier sign: "="
  IC50 (µM): 11
- chemical structure: "O=C(Nc1cccnn1)N1CCC(=Cc2cccc(Oc3ccc(C(F)(F)F)cn3)c2)CC1"
  modifier sign: ">"
  IC50 (µM): 50

----------
# target or system: FAAH (Homo sapiens, UniProt O00519)
# method notes: anandamide substrate hydrolysis assay, HEK293T cell lysates
# Assay type: biochemical
# condition set: FAAH, in vitro

- chemical structure: "O=C(Nc1cccnn1)N1CCC(=Cc2cccc(Oc3ccc(C(F)(F)F)cn3)c2)CC1"
  target or system: "FAAH (Homo sapiens, UniProt O00519)"
  IC50: "1 to 10 nM"

----------
# target or system: UniProt Q8NFV4
# Sequence (Q8NFV4 whole entry): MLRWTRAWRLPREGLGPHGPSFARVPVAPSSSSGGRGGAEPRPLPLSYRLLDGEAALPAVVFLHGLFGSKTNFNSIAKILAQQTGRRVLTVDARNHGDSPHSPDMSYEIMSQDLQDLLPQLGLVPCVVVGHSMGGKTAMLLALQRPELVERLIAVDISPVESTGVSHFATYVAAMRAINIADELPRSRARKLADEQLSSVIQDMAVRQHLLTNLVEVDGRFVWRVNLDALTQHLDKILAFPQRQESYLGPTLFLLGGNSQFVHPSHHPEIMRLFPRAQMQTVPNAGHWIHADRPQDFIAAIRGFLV
# method notes: competitive gel-based ABPP, intact HEK293T cells
# Type: cell-based
# condition set: ABHD11, in situ (4 h)
IC50 by entry:
measurement kind: IC50

- molecule: "CN(C(=O)n1cnc(-c2ccc[n+]([O-])c2)c1)C1CCCCC1 [BIA 10-2474]"
  recorded measurement: "> 10 µM"
- molecule: "O=C(Nc1cccnn1)N1CCC(=Cc2cccc(Oc3ccc(C(F)(F)F)cn3)c2)CC1 [PF04457845]"
  recorded measurement: "> 10 µM"

----------
# target or system: FAAH (Homo sapiens, UniProt O00519)
# method notes: anandamide substrate hydrolysis assay, HEK293T cell lysates
# Type: biochemical
# condition set: human FAAH, in vitro
pIC50: −log10 of the molar value.

- chemical structure: "CN(C(=O)n1cnc(-c2ccc[n+]([O-])c2)c1)C1CCCCC1"
  pIC50: "≤ 6.00"
